TARGET: T1, HLA-A2 molecules on T2 cells (human)
T1 construct: whole, on cells; MHC class I molecule on the cell surface; also called HLA-A2.1
TEST NAME: T2 cell HLA-A2 upregulation assay, flow cytometry, peptide 25 µg/ml
Record form. Attribute: fold increase as compared with the negative control. Fill in for each entry.
# output: bare number, implied unit fold

Measured fold increase as compared with the negative control, YLGDCQEMDV (also called P59-2) [P59 (59Y/60L/68V) PAGE4 analogue peptide] : 1.5

Entry QEAPDVVAFV (Synthetic peptide, purity >95%; also called P16-25) [P16 (native) PAGE4 peptide, amino acids 16-25] ; fold increase as compared with the negative control = 1.2

So, QLAPDVVAFV [P16 (17L) PAGE4 agonist peptide] ? Its fold increase as compared with the negative control was 3.2

Looking up KTPPNPKHA (Synthetic peptide; also called P84-92) [P84 (native) PAGE4 peptide, amino acids 84-92] , I see its fold increase as compared with the negative control listed as 1.04

Lab note: measured fold increase as compared with the negative control of YLAPDVVAFV (also called P16-2) [P16 (16Y/17L) PAGE4 agonist peptide] was 3

Noted for VLGDCQEMDL (also called P59-1) [P59 (60L) PAGE4 analogue peptide] : its fold increase as compared with the negative control reads 1.1

Lab note: measured fold increase as compared with the negative control of VEGDCQEMDL (Synthetic peptide; also called P59-68) [P59 (native) PAGE4 peptide, amino acids 59-68] was 0.9

Documented fold increase as compared with the negative control of YLPPNPKHV (also called P84-1) [P84 (84Y/85L/92V) PAGE4 agonist peptide] : 2.1

So, ALWGQDVTSV (Positive control of the T2 assay; also called positive control) [MUC-1 peptide] ? Its fold increase as compared with the negative control was 2.7
